The reported numbers originate from patent US20140056902A1.

- SUBJECT OF TEST: T1, human mature dimer BMP9 recombinant protein (manufactured by R&D systems, Cat#3209-BP) (human, UniProt Q9UK05 320-429)
- T1 construct: Bought protein; also called human BMP9; human BMP9 recombinant protein (manufactured by R&D systems)
- T1 sequence: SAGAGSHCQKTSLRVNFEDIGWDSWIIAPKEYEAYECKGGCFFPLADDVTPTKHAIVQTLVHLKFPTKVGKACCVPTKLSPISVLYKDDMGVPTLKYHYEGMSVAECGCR
- PROTOCOL DESCRIPTION: SPR (Biacore T100), antibody captured on anti-human IgG, human BMP9 (R&D 3209-BP) as analyte, 5 concentrations from 1 nM
QUANTITY KIND: koff (s⁻¹)
Only the number, expressed in s⁻¹, is required.

Recorded koff, per entry:
10D5-2-3 antibody-humanized antibody HV4aLV0 (antibody, V domains shown, Expressed from pKANTEX93) VH: EVQLVESRGGLVQPGGSMRLSCAASGFTFSNYWMNWVRQAPGKGLEWVGHIRLKSDNYATHYAESVRGRFTISRDDSKSSLYLQMNSLKTEDTAVYYCAGGSNYVFAFWGQGTLVTVSS VL: DIVMTQSPDSLAVSLGERATINCRASESVDNYGISFMNWYQQKPGQPPKLLIYAASNQGSGVPDRFSGSGSGTDFTLTISSLQAEDVAVYYCQQSKEVPWTFGQGTKLEIK; 0.00145
10D5-2-3 antibody-humanized antibody HV9LV3 (antibody, V domains shown, Expressed from pKANTEX93) VH: EVQLVESRGGLVQPGGSMRLSCAASGFTFSNYWMNWVRQAPGKGLEWVAHIRLKSDNYATHYAESVRGRFTISRDDSKSSVYLQMNSLKTEDTGIYYCTGGSNYVFAFWGQGTLVTVSS VL: DIVMTQSPDSLAVSLGERATINCRASESVDNYGISFMNWFQQKPGQPPKLLIYAASNQGSGVPDRFSGSGSGTDFTLTISPLQAEDVAVYFCQQSKEVPWTFGQGTKLEIK; 0.000279
10D5-2-3 antibody-humanized antibody HV4bLV0 (antibody, V domains shown, Expressed from pKANTEX93) VH: EVQLVESGGGLVQPGGSLRLSCAASGFTFSNYWMNWVRQAPGKGLEWVAHIRLKSDNYATHYAESVRGRFTISRDDSKNSLYLQMNSLKTEDTAIYYCTGGSNYVFAFWGQGTLVTVSS VL: DIVMTQSPDSLAVSLGERATINCRASESVDNYGISFMNWYQQKPGQPPKLLIYAASNQGSGVPDRFSGSGSGTDFTLTISSLQAEDVAVYYCQQSKEVPWTFGQGTKLEIK; 0.00164
10D5-2-3 antibody-humanized antibody HV4bLV2 (antibody, V domains shown, Expressed from pKANTEX93) VH: EVQLVESGGGLVQPGGSLRLSCAASGFTFSNYWMNWVRQAPGKGLEWVAHIRLKSDNYATHYAESVRGRFTISRDDSKNSLYLQMNSLKTEDTAIYYCTGGSNYVFAFWGQGTLVTVSS VL: DIVMTQSPDSLAVSLGERATINCRASESVDNYGISFMNWFQQKPGQPPKLLIYAASNQGSGVPDRFSGSGSGTDFTLTISSLQAEDVAVYFCQQSKEVPWTFGQGTKLEIK; 0.000588

Now let's try a different one.
Please look up its koff: 10D5-2-3 antibody-humanized antibody HV7aLV2 (antibody, V domains shown, Expressed from pKANTEX93) VH: EVQLVESRGGLVQPGGSMRLSCAASGFTFSNYWMNWVRQAPGKGLEWVAHIRLKSDNYATHYAESVRGRFTISRDDSKSSLYLQMNSLKTEDTGVYYCTGGSNYVFAFWGQGTLVTVSS VL: DIVMTQSPDSLAVSLGERATINCRASESVDNYGISFMNWFQQKPGQPPKLLIYAASNQGSGVPDRFSGSGSGTDFTLTISSLQAEDVAVYFCQQSKEVPWTFGQGTKLEIK
0.000477
